# pIC50 listing for each entry below
tested on: CEM cells HIV-1 protection, formazan growth assay; experiment: NCI AIDS Antiviral Assay; settings: measured here: growth of uninfected CEM cells
pIC50: −log10 of the molar value.

{"columns": ["COMPOUND", "TESTED ON", "READOUT VALUE"],
 "data": [
  ["Cc1ccc2c(c1)C(=O)CC1CC(=O)c3ccccc3C21 (configuration not stated)", "CEM cells HIV-1 protection, formazan growth assay", "< 3.70"],
  ["Oc1ccc(Cl)cc1-c1[nH]c(=S)nc(-c2ccccc2)c1Cl", "CEM cells HIV-1 protection, formazan growth assay", "< 3.70"],
  ["COP(=O)(OC)C(NC(=O)C(F)(F)F)(c1ccccc1)C(F)(F)F (configuration not stated)", "CEM cells HIV-1 protection, formazan growth assay", "< 3.70"],
  ["N#C/C(=C\\n1c(=S)[nH]c2ccc([N+](=O)[O-])cc21)C(=O)c1ccc2ccccc2c1", "CEM cells HIV-1 protection, formazan growth assay", "< 3.70"]
]}

Which pIC50 reading was recorded for the compound Cc1csc2n(C)c(=O)c3ccccc3[n+]12 ?
< 3.70

Which pIC50 reading was recorded for the compound COc1ccc(-n2c(=O)c3[nH]cnc3n(-c3ccc(OC)cc3)c2=S)cc1 ?
< 3.70

Which pIC50 reading was recorded for the compound C=C(C)C#CC(O)(C(=O)OC1CCN(C)CC1)C(C)C (configuration not stated) ?
< 3.70

Which pIC50 reading was recorded for the compound CC(C)SC(C)(NC(=O)C1C(C)(C)CCC1(C)C)C(=O)O (configuration not stated) ?
< 3.70

Which pIC50 reading was recorded for the compound Cc1ccc(/C=C2\CN(C)CC3C2=NN(c2ccccc2)C3c2ccc(C)cc2)cc1 (configuration not stated) ?
< 3.70

Which pIC50 reading was recorded for the compound O=c1[nH]c2nc[nH]c2c(=O)n1C1CCCCC1 ?
< 3.70

Which pIC50 reading was recorded for the compound NC(C(=O)O)C1=CCCCCC1 (configuration not stated) ?
< 3.70

Which pIC50 reading was recorded for the compound Cn1c(-c2ccc(/C=N\N3CCN(/N=C/c4ccc(-c5c[n+]6ccccc6n5C)cc4)CC3)cc2)c[n+]2ccccc12 ?
< 5.52

Which pIC50 reading was recorded for the compound Cc1noc(C)c1N=Nc1ccc2nonc2c1N ?
< 3.70

Which pIC50 reading was recorded for the compound CC(=O)NC(CC(C)C)C(=O)NC(Cc1ccccc1)C(=S)N1CCCC1 (configuration not stated) ?
< 3.76

Which pIC50 reading was recorded for the compound O=C1CC2CCCC(=O)C23CCC[C@H]13 (some centres not stated) ?
< 3.49

Which pIC50 reading was recorded for the compound CC1(C)CCCCCC(C)(CCCO)C1=O (configuration not stated) ?
< 3.70

Which pIC50 reading was recorded for the compound c1ccc(C[P+]2(c3ccccc3)c3ccccc3-c3ccccc32)cc1 ?
< 3.70

Which pIC50 reading was recorded for the compound COC(=O)C1CCc2c1c(=O)n1c([nH]c3ccccc31)c2C#N (configuration not stated) ?
< 4.39

Which pIC50 reading was recorded for the compound CCOC(O)(NC(=O)C(C(F)(F)F)C(F)(F)F)C(F)(F)F (configuration not stated) ?
< 3.70

Which pIC50 reading was recorded for the compound O=C1CC2(Cl)CN3c4ccccc4C(=O)CC3(Cl)CN2c2ccccc21 (configuration not stated) ?
< 4.24

Which pIC50 reading was recorded for the compound Clc1ccc2c(c1)C1C(CO2)C(c2ccccc2)=NN1c1ccccc1 (configuration not stated) ?
< 4.56

Which pIC50 reading was recorded for the compound N#Cc1cccc(NC(=O)c2ccc(C(=O)O)c(C(=O)c3ccc(C(=O)O)c(C(=O)Nc4cccc(C#N)c4)c3)c2)c1 ?
< 3.77
